Listed here: items and their measured folding stability dG unfold.
testMethodNotes: folding stability dG unfold from trypsin proteolysis; higher = more stable
Kindly answer with a numeric value in kcal/mol, unit omitted.

{"columns": ["biosequence", "u", "testResult"],
 "data": [
  ["SAGGMTLTLTIKVKTTTVEKDAATGKETVRTETRTLTVTIEAESEEEALAALKKLLEELGFEIVEVTSAGGS [r16_459_TrROS_Hall]", "kcal/mol", 3.99],
  ["SAGGSSSSALVTVPRTETFPGTTLTTETLITIDPETGTVKVTSTVYSEGEPVEVVPSTVPAAEVTLSAGGSA [r2_188_JUSTAS]", "kcal/mol", 0.566],
  ["SAGGSAGKNKPFPLPILIEAHPDDPEEAAERLKAELEALFPGPIKVEIVEVDPEKGIITAIVTVDGSAGGSA [r15_1024_TrMRF]", "kcal/mol", 0.985],
  ["SGLVEAIAKALGAESVTPHPDGTFSLRLKDGSYLKIKVEVLEVRERPDGSPEFIVKIEIEVFEGGKPEDESA [r9_648_TrMRF]", "kcal/mol", 4.56],
  ["SAGGSAGGSAGGSPDGWKFKMEMFTVKVPGAKITIPDGKSITLPPGKEVTIMIMTYVPPSAGGSAGGSAGGS [r4_26_TrROS]", "kcal/mol", 2.25],
  ["SAMTVERLPDGSLRITIPDPNSDTTYTIEIRRLPDGSYEVTITTTKPDGSTTTTTRPMSEEEAIAEVLASAG [r14_179_JUSTAS]", "kcal/mol", 3.75]
]}

Note to self: folding stability dG unfold recorded for SAGGMEPIEIPAKVKITHNGKEQEYPLENVTIWPMPDGMYMIYNPDKGEMFFINPKNGRLMRIEIDDSAGGS [r16_721_TrROS] was 0.94

====

testMethodNotes: folding stability dG unfold from trypsin proteolysis; higher = more stable
observedProperty: folding stability dG unfold (kcal/mol)
Kindly answer with a numeric value in kcal/mol, unit omitted.

Solved entries:
{"columns": ["biosequence", "u", "testResult"],
 "data": [
  ["SAGGSAGGSAGPFTIMVIERVPPDDPEYDKLHKDNGMPPENMIRIKIFRFKSPEQLKELFSAGGSAGGSAGG [r11_83_TrROS]", "kcal/mol", 1.82],
  ["SMIKPGEKIKKIKLKLENGEEVEATLVKNEDGSLVLFIKVDGEVYVFTFNPDGEIKIEKVSKEEAEKLLKSA [r9_1144_TrROS_Hall]", "kcal/mol", 2.05],
  ["SMVIEINEDGTVKVYLPEELKGLSAEEIEELIKKLFGPNVKIEKIEIFEPPPKLTEEEKEELKKLPKEEKSA [r9_1011_TrROS_Hall]", "kcal/mol", 0.866],
  ["SHMVTVTIYKNGVKVKETEIPLEEVEKMPEEEIIEFAAEIAKKNPGVNYTFTITRPSGPSTVSIDGPEKLKS [r1_477_JUSTAS]", "kcal/mol", 0.762]
]}

Note to self: folding stability dG unfold recorded for SAGGSAGGSAGSPVVTTEKVKTEGNTTVYRVTEPALNTETLVTEDAGANPTIKTTTYNTPSAGGSAGGSAGG [r11_738_JUSTAS] was -0.955

Note to self: folding stability dG unfold recorded for SAGGSAGGSSMPLTVEELLASVGPDKTATVLVPPGTSIPANITPLGTEPEGGWRTFAIPASLVSAGGSAGGS [r12_356_JUSTAS] was -0.137

Note to self: folding stability dG unfold recorded for PEKVILVEVPAGEELTEEELKELAEALGLEVEIEKVKVTVTVTVEVTLPDGKKVKVETTETRTVVLVTVKDS [r1_238_TrROS_Hall] was 2.66

Note to self: folding stability dG unfold recorded for SAGGSAMVRLPDGTLVIDVKLPEDRPDAKVTVTVLEDGSPVGSVDVNTGKVTISVSPGVSVSITVESAGGSA [r15_180_JUSTAS] was 2.12

Note to self: folding stability dG unfold recorded for SMLKPGDIVKLPNGPIYVVKKLTISYDPSTSPPKLELELVPLGEPKPVLKEYTLPDGSTKTEIGYYWTGPSA [r9_914_TrMRF] was 0.922

Note to self: folding stability dG unfold recorded for SAGGSAGGSAGTTTKITEIKELPTDYVELTMKYPDGTTIKKLIPKSIYKDLPVSSTFSGGSAGGSAGGSAGG [r11_943_JUSTAS] was -0.0564

Note to self: folding stability dG unfold recorded for SAGGSAGGSAKYILITAPKDNEEKVLEIAEELEKKYGVKLHKVERLPDGTVKALVEIFAPEKSAGGSAGGSA [r18_351_TrMRF] was 0.057

Note to self: folding stability dG unfold recorded for SAGGGPPPVEVTTSTDPSTGKVTTTVTAGPAGTRFTSSSPNGSSTTTTTVTYVGDTWEVSTSSTSSSSAGGS [r16_631_JUSTAS] was 1.21

Note to self: folding stability dG unfold recorded for SAGGGNKVLLVVEAESPEVLEEKIREAEEAFGFTVTPLRREPLPDDRYRLVLEIDAPPEVVEFFKKESAGGS [r8_357_TrMRF] was 1.15

Note to self: folding stability dG unfold recorded for SAGGSAGGMPEYRVLDIEIETRPDMTPEEAVEEIRKALEPLGAIRVEAEPLPDGRIRVRVVLPESAGGSAGG [r6_881_TrMRF] was 3.5

====

Listed here: items and their measured folding stability dG unfold.
testMethodNotes: folding stability dG unfold (combined trypsin and chymotrypsin); higher = more stable
Kindly answer with a numeric value in kcal/mol, unit omitted.

Note to self: folding stability dG unfold recorded for SAGGSAMTVTKVGSETKTDPAKGIVTTTEITKLPTGGLTKTVTTTTIEGGKVKSSTTTTTAIPVGTSAGGSA [r15_283_JUSTAS] was 0.104

Note to self: folding stability dG unfold recorded for SAGGMKLEIYLRFKTEEEAKKAVEELIRKLLEELGLEVEVEVVYDEETKEVYVKVTVTFPELPEEELSAGGS [r8_17_TrROS_Hall] was 4.4

Note to self: folding stability dG unfold recorded for SAGGSAGGSAKEYIVRIKVRLKDGEEVEIEITVSEEELEELKKALESLPNIEEAEIEVFPLPSAGGSAGGSA [r18_157_TrROS_Hall] was 3.63

Note to self: folding stability dG unfold recorded for SAGGWITVNQIRDLAKELPPGWRIKIKIEYPGKKHEHTIPPGDPITIPPNMPPEDITRIEITEIEPYSAGGS [r16_97_TrROS] was 0.575

Note to self: folding stability dG unfold recorded for SAGGMRIRIVVPPEMSPEEIAELLKKLFPDYEIKVEVKTVKVKVKDEETGEEYEVEVLVVEIEIKEKSAGGS [r16_828_TrROS_Hall] was 3.74

====

Listed here: items and their measured folding stability dG unfold.
testMethodNotes: folding stability dG unfold (combined trypsin and chymotrypsin); higher = more stable
Kindly answer with a numeric value in kcal/mol, unit omitted.

Solved entries:
{"columns": ["biosequence", "folding stability dG unfold / kcal/mol"],
 "data": [
  ["SAGGSAGGSAGGKTLTLEIEINGKLYKIEFSGDSIKITEIKVKPKPKKKEFFSEEELKKKSAGGSAGGSAGG [r7_748_TrROS_Hall]", 1.87],
  ["SAGGSANGKRVEVPITIFFYRRDPEDGKWEPIFPFEIPIRIPVPPGAEVTIEIEFTGNMFRITIEVSAGGSA [r15_537_TrROS]", 4.09],
  ["SAGGSAGGSAGGAMAPDEPVERVEVTYKTGRLTFPGKPVLKKEKVVLKFTLTVTDPALLSAGGSAGGSAGGS [r10_745_JUSTAS]", 0.0101],
  ["SAGGMTAEEIAEALRERLRELFPPGAEIEVDEIEVEEVEVEEEPVELSEEERERVEKMPEEERERLLSAGGS [r16_272_TrROS_Hall]", 0.635],
  ["SAGGSAGGNWKVEIWPNGEQQEYTIDEIKKQLKNDIPPNYMIRVKGSGKWIPVRELLKEAGIPLSAGGSAGG [r6_937_TrROS]", 0.691],
  ["SAGGSAGGSALPEAEVLEVRFSPDGRRVDAVLRLDGELLVLRIDFPPDGTARIELYPAEDISAGGSAGGSAG [r3_167_TrMRF]", 2.07],
  ["SAGGMIKIEVEKKDDKLIIRIEVDGKKYEIEIPKDMTLEEALKKALEELKEKFPGKKIKIKKVEIFKPSAGG [r13_884_TrROS_Hall]", 2.36],
  ["SAGMTFEEEFVEEVDGGEMVKTKTLYEYDPSTNSITVLEEEVEKIPLPEVAPAPAPPEAMEERGAPGALSAG [r5_393_JUSTAS]", -0.115]
]}

Note to self: folding stability dG unfold recorded for SPKIEIEPMPPNMFIAKIRDPEKNKKVSIHIPPNMPPGQPMQVYDPDKPKWVPFNEIEELLKKGLPVEIYSA [r9_250_TrROS] was -0.496

Note to self: folding stability dG unfold recorded for SLEEKIKEAIENSPPNSEVIVPLPDDRTVKITVTPETVTGDGRRRLRIKVTITIYDPSGTKLGEKVLEIPLS [r1_386_JUSTAS] was 3.69

Note to self: folding stability dG unfold recorded for SAGGSAGGSAMRLEIELENGLKIEIELEVNEDGELKMKIKIEPLPPVPEVVVTKVVKLEEESAGGSAGGSAG [r3_15_TrROS_Hall] was 1.98

Note to self: folding stability dG unfold recorded for SAGGSAEEEEITIKLRITVYNEETGKPVKEIEIEIKVKKGQTLEQILEEAKKLLEEKGYKIVEIEISAGGSA [r15_195_TrROS_Hall] was 4.52

Note to self: folding stability dG unfold recorded for SAGGSAGGSAGGSMSGVFSTETVFLEKTLPDGSRVEALTTIETYLPLPPLPPFKFPSAVSAGGSAGGSAGGS [r4_325_JUSTAS] was 0.437

Note to self: folding stability dG unfold recorded for SAGGSAGGSAGMTVEVVKSVVPTKTNETVIVTTVTEVEPPTGKVTTLETKTVSTANPELLSAGGSAGGSAGG [r11_777_JUSTAS] was -0.369
